Test: NCI Yeast Anticancer Drug Screen. Data for the sgs1 mgt1 strain (AID 161);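 note: 0% = growth of cultures given vehicle only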
Settings: S. cerevisiae sgs1 mgt1 strain, at 50.0 µM, stronger effect = higher value
This is part of a sample that, as a whole, favours compounds with a hit. Of some 79,000 tested, about 15% had one in any assay.
Measured Metric: growth inhibition (%)
Field: numeric (%). Do not append units.

## Input Please report growth inhibition for the following compound: CCCCc1c(C#N)c(=O)n2c(N)c(C#N)cnc2c1SC
## Output 21.2

## Input Report measured growth inhibition; entry is O=C1NCC(c2ccccc2)(c2ccccc2)O1
## Output 10.3

## Input State, in one line, measured growth inhibition of O=S(=O)(O)CO
## Output 26

## Input Return growth inhibition for the following compound: OC1CNC(=S)NC1
## Output -12.6

## Input Look up and state reported growth inhibition for CC1=C(C(=O)NCCc2ccccc2)CC(C(=O)NCCc2ccccc2)=C(C)N1
## Output 5.75

## Input For CCCCNc1nc2c(=O)n(C)c(=O)n(C)c2s1 , write its growth inhibition.
## Output -3.1

## Input Specify reported growth inhibition for the compound shown: CC(=O)OC/C=C/CN(C)C
## Output -7.25

## Input Using the record for COc1ccc(C(=O)c2ccc(OC)cc2)cc1 , state its measured growth inhibition.
## Output -3.1

## Input Answer with reported growth inhibition of COc1ccc(CC(=O)NCCc2ccc(OC)c(OC)c2OC)cc1
## Output -30

## Input Specify growth inhibition for NC(=O)c1ccc(Cl)cc1 and stop.
## Output 15.5

## Input Given the compound C=C1C(=O)OC2/C=C(\C)CC(O)/C=C(/CO)CC(OC(=O)/C(C)=C/C)C12 (stereo not drawn) , write its reported growth inhibition.
## Output -6.55

## Input Let me know recorded growth inhibition for C=CCOC(=O)C(F)(F)F , thanks.
## Output -0.7

## Input Report measured growth inhibition; entry is CN(C)C(CN)CC1=C(CC(CN)N(C)C)CCC1 (stereo not drawn)
## Output -5.5

## Input Please indicate growth inhibition recorded for Cc1ccc(S(=O)(=O)O/N=C2\CCC\C2=C/c2ccccc2)cc1
## Output 26

## Input Kindly indicate its recorded growth inhibition. Item: CC1CCCCNC1=S (stereo not drawn)
## Output 19.9

## Input Identify measured growth inhibition corresponding to CC1CC(=O)NC(=O)C1
## Output -18.8

## Input Write down growth inhibition measured for item Cc1cccnc1N
## Output 5.3

## Input Report growth inhibition, nothing else, for this compound: O=C(NCc1ccccn1)c1ccccc1
## Output -4.45

## Input Specify measured growth inhibition for CCC(C(C)=O)C(C)C (stereo not drawn) .
## Output 8.6

## Input Answer with the recorded growth inhibition of COc1cccc(Cc2cncc3c(O)c(OC)ccc23)c1O only.
## Output -8.05

## Input Recall and state the measured growth inhibition for [O-]/[N+](=C\c1ccc(OCc2ccccc2)cc1)c1ccccc1 .
## Output -20.7

---

Test: NCI Yeast Anticancer Drug Screen. Data for the cln2 rad14 strain (AID 165);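 note: 0% = growth equal to vehicle treated cultures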
Details: S. cerevisiae cln2 rad14 strain, at 50.0 µM
About 79,000 compounds went through this panel and 15% of them were active in at least one assay; those are over-represented in the sample as a whole. Active and inactive are the calls of the source. Cut-off read from the data, not from the text of the source: active = growth inhibition above about 70%; inactive = the rest.
Please answer using one outcome listed in Y = active, N = inactive

CC1(C)CC2=C(Sc3ccccc3N2)C(=O)C1C(=O)C(=O)Nc1cccc([N+](=O)[O-])c1 (configuration not stated) ... N
O=[N+]([O-])c1ccc(-c2cc3ccccn3c2)cc1 ... N
COC(=O)Nc1nc2c(OC)c(OC)c(OC)cc2[nH]1 ... N
CCCCCOC(C)(OCCCCC)OCCCCC ... N

## Input Outcome logged for Nc1c2c(nn1-c1ccccc1)C(=O)N(CCc1ccccc1)C2 in this assay:
## Output N

## Input Check the results log: what was the call for O=C(O)c1cc(Cl)ccc1-c1ccc(Cl)cc1C(=O)Nc1ccc2c(c1)Cc1ccccc1-2 ?
## Output Y

---

Assay: NCI Yeast Anticancer Drug Screen. Data for the bub3 strain (AID 167)
Settings: S. cerevisiae bub3 mutant strain, at 50.0 µM
Description: Growth inhibition of yeast strains with defined genetic alterations is measured as a screen for potential anti-cancer activity. Selected strains with alterations in DNA damage repair or cell cycle control were exposed to compounds and growth inhibition was measured relative to vehicle treated controls. The strain used in this assay is bub3
Compounds without any hit were thinned out: in the full panel of roughly 79,000, 15% have a hit. Calls of active or inactive are those of the source. Cut-off read from the data, not from the text of the source: active = growth inhibition above about 70%; inactive = the rest.
I would appreciate it if you answered using one of these outcomes: active, inactive

O=[N+]([O-])c1ccccc1C(Nc1nncs1)Nc1nncs1 ... inactive

## Input Hi, sorry to bother you, what did the test record for NCCCCCCN ?
## Output inactive

## Input What call does the record list for COc1ccc2c3ccc4c(c3n(C)c2c1)C(=O)c1ccccc1C4=O ?
## Output inactive

## Input Look up the recorded call for Cc1nc(Nc2ccccc2Cl)sc1C(=O)CC(=O)C(N)=O in this test.
## Output inactive

## Input Kindly provide the recorded test outcome for the following compound: CC(Cl)(CCC(Cl)C(C)(C)Cl)C(=O)CBr (stereo not given)
## Output active

---

Test: NCI Yeast Anticancer Drug Screen. Data for the mec2-1 strain (AID 157)
Settings: S. cerevisiae mec2-1 strain, at 50.0 µM, stronger effect = higher value
Compounds without any hit were thinned out: in the full panel of roughly 79,000, 15% have a hit.
Measured Metric: growth inhibition (%)
Answer format: numeric, % implied, no suffix.

Worked examples follow.
N#CC1=C(Nc2ccccc2)SC(c2cccs2)NC1=O (stereo not drawn) ... 4.7
c1ccc(-c2nc(-c3ccccc3)n3nc4c(c3c2-c2ccccc2)CCCCCC4)cc1 ... 5.65
Fc1ccccc1C1CC(c2ccc3ccccc3c2)=Nc2ccccc2S1 (stereo not drawn) ... 12.1
CCCn1c(=O)n(C)c(=O)c2c1ncn2C ... -2.25

## Input Output measured growth inhibition for this item: COC(=O)CC1C(OC)OC23CCC1C2(C)CCC1C3CCC2CC(OC3CCCCO3)CCC21C (stereo not drawn)
## Output 1.15

## Input Consider the compound Cc1nc(C(N)=S)sc1C(=O)CC(=O)C(=O)Nc1ccccc1[N+](=O)[O-] and give its recorded growth inhibition.
## Output -9

## Input Give a short answer stating reported growth inhibition for COc1ccc(C(=O)C/C(=N\N(C(=O)c2ccc(OC)cc2)c2ccccc2)c2ccc(OC)cc2)cc1 .
## Output -24.8

## Input Give growth inhibition for CC(=O)CC(=O)NC1CCCC1
## Output -38.6

## Input Query growth inhibition for CC12CCCC1C1CC=C3CC(SC4CCC5(C)C(=CCC6C7CCCC7(C)CCC65)C4)CCC3(C)C1CC2 (stereo not drawn)
## Output -0.25

## Input State its growth inhibition: Cc1cc(Cl)ccc1NC(=O)NC(C)(C)COC(=O)Nc1cccc(Cl)c1
## Output -7.3

## Input Give recorded growth inhibition. Cc1ccc(S(=O)(=O)C/C(=N\Nc2ccc([N+](=O)[O-])cc2[N+](=O)[O-])c2ccccc2)cc1
## Output -9.45

## Input Read the entry O=CNCCN(C=O)CCO and write its reported growth inhibition.
## Output -29.9

## Input Entry NC(=O)C1CCc2ccccc2C1 (stereo not drawn) needs its growth inhibition filled in; supply it.
## Output -15.1

---

Listed molecules paired with reported growth inhibition
Experiment: NCI Yeast Anticancer Drug Screen. Data for the sgs1 mgt1 strain (AID 161);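 note: 0% = growth of cultures given vehicle only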
Settings: S. cerevisiae sgs1 mgt1 strain, at 50.0 µM, stronger effect = higher value
The panel holds about 79,000 compounds, 15% with a hit somewhere; the sample as a whole holds those more often.
The reply should contain only the number, in %.

Completed entries (count: 5):
O=C(O)CCC(=O)Nc1ccccc1C(=O)O ... -8.15
C/C=C/c1ccc(O)c(OC)c1 ... 4.85
C=CCNC(=O)N(CCC)CCCC(NC(C)=O)C(=O)NCc1ccccc1 (configuration not stated) ... -14.8
COc1ccccc1-n1c(O)c(N=Nc2ccc(Cl)cc2)c(=O)n(-c2ccc(I)cc2)c1=S ... 36
O=C(O)CN1C(=O)NC(C2CC2)(C2CC2)C1=O ... -12.8

Now take the following molecule into account.
## Input Indicate its recorded growth inhibition; the molecule in question is CCCCCCCCCCCCCCCCS(=O)(=O)N/N=C/c1ccccc1O
## Output 30.2

---

Assay: NCI Yeast Anticancer Drug Screen. Data for the rad50 strain (AID 155);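 note: 0% = growth of vehicle-only cultures of the same strain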
Settings: S. cerevisiae rad50 strain growth inhibition; at 50.0 µM; stronger effect = higher value
Compounds without any hit were thinned out: in the full panel of roughly 79,000, 15% have a hit.
Listed here: items and their measured growth inhibition.
Write the value in % as a bare number.

Here is how some compounds turned out for growth inhibition.
CSc1ccc(OC(=O)Nc2cc([N+](=O)[O-])ccc2F)cc1C ... 16.6
Cc1ccc(S(=O)(=O)Nc2cc3c(cc2NC(=O)C(F)(F)F)-c2ccccc2C3)cc1 ... 52.8
COc1ccc(NC2=CC(=O)c3ccccc3C2=O)cc1 ... 0.4
C(=Nc1ccccc1)Nc1ccccc1 ... 2.85
CCCCC1(CCBr)C(=O)NC(=Nc2ccccc2)NC1=O (configuration not stated) ... 1.85
O=[N+]([O-])c1ccc(CCO)cc1 ... -4.15
NC(=S)NNC(=S)NC(=O)c1ccco1 ... -39.8
O=C(CSc1nnc(Cc2ccccc2)o1)Nc1ccc([N+](=O)[O-])cc1 ... 11.2
Cc1ccsc1/C=N/NC(N)=S ... 30
COc1cc(NC=O)c2c(c1)SCC(=O)N2 ... -1.75

## Input Return growth inhibition (reported value) for this compound: C/C=C\CCCCC
## Output 13.8

## Input Identify measured growth inhibition corresponding to Cn1c(=O)c2[nH]c(CCCCCc3nc4c([nH]3)c(=O)n(C)c(=O)n4C)nc2n(C)c1=O
## Output -9
